tested on: Calu-3; assay: drug sensitivity score (DSS) for viability; higher = more toxic; extreme values may be limits of the assay; details: 72 h
Entries annotated with measured drug sensitivity score
No unit in the answer, only the number.

Some compounds with known drug sensitivity score results, for comparison:
compound=C=C1/C(=C\C=C2/CCC[C@]3(C)[C@@H]([C@H](C)CCCC(C)C)CC[C@@H]23)C[C@@H](O)C[C@@H]1O property="drug sensitivity score" readout_value=0
compound=COc1ccccc1NC(=O)OCC1CCN(C(=O)OC(C)(C)C)CC1 property="drug sensitivity score" readout_value=0
compound=CCSc1ccc2c(c1)N(CCCN1CCN(C)CC1)c1ccccc1S2 property="drug sensitivity score" readout_value=1.5

Consider the record given below.
Look at this compound and give its reported drug sensitivity score. Cc1cnc(C(=O)NCCc2ccc(S(=O)(=O)NC(=O)NC3CCCCC3)cc2)cn1 [glipizide] 0

====

test system: Calu-3; assay: cell viability relative to DMSO; higher = less toxic; settings: 72 h; 1000 nM
property: cell viability (%)
Field format: number, assumed %, no unit text.

The cases that follow already have their cell viability on record.
compound=COc1cc(C=O)c([N+](=O)[O-])cc1OC property="cell viability" uom=% readout_value=96.9
compound=COc1ccc(-c2nc(C(=O)N3CCN(C)CC3)sc2-c2ccc(OC)cc2)cc1 property="cell viability" uom=% readout_value=109
compound="CNc1cc(OC)c(C(=O)NC2CCN(Cc3ccccc3)C2C)cc1Cl (centres undefined) [nemonapride]" property="cell viability" uom=% readout_value=105
compound=CNC(=O)c1ccccc1Nc1cc(Nc2ccc(N3CCOCC3)cc2OC)ncc1C(F)(F)F property="cell viability" uom=% readout_value=68.3
compound=Nc1nc2ccc(Cl)cc2c2nc(-c3ccco3)nn12 property="cell viability" uom=% readout_value=98.5
compound=O=C(CC(c1ccccc1)c1ccccc1)N1CCN(C(c2ccccc2)c2ccccc2)CC1 property="cell viability" uom=% readout_value=93.9

Name the reported cell viability value associated with the compound CCSc1ccc2c(c1)N(CCCN1CCN(C)CC1)c1ccccc1S2 110

Quick one: cell viability for C[C@@H]1COCCN1c1cc(=O)n2c(n1)N(Cc1cncc(Cl)c1)[C@H](C(F)(F)F)CC2 ? 104

Give the measured cell viability of CC(C)c1ccccc1Cc1cc(C(=O)Nc2ccc(S(=O)(=O)c3ccccc3C(C)(C)C)cc2)c(O)c(O)c1O . 86

====

system: HepG2; assay: cell viability relative to DMSO; higher = less toxic; conditions: 72 h; 100 nM
property: cell viability (%)
Give just the numeric value; % need not be written.

compound=CCCCCS(=O)(=O)CCCCCCCCCCn1c(-c2ccc(O)cc2)c(C)c2cc(O)ccc21 tested_system=HepG2 readout_value=98.5
compound=OCCN(CCO)c1nc(N2CCCCC2)c2nc(N(CCO)CCO)nc(N3CCCCC3)c2n1 tested_system=HepG2 readout_value=96.6

What does the record list as cell viability for C=C[C@]1(C)CC[C@@H](C(=C)C)C[C@H]1C(=C)C ? 93.2

I have this compound here, COc1ccc(S(=O)(=O)N2CCC[C@H]2C(=O)Nc2cc(C)cc(C)c2)cc1 , and I need its recorded cell viability. 113

Quick one: cell viability for Cc1nnsc1C(=O)Nc1ccc(-n2nc(C(F)(F)F)cc2C(F)(F)F)cc1 ? 105

Quick one: cell viability for COc1ccc(CNC(=O)Nc2ncc([N+](=O)[O-])s2)cc1 ? 102

I have this compound here, OC(c1ccccc1)(c1ccccc1)C1CCNCC1 , and I need its recorded cell viability. 101

Entry under review: CCC(=O)O[C@]1(C(=O)COC(C)=O)CC[C@H]2[C@@H]3C[C@H](C)C4=CC(=O)C=C[C@]4(C)[C@H]3[C@@H](O)C[C@@]21C [methylprednisolone-aceponate] . Reported cell viability? 91.1

# lookup: cell viability of CCOc1nc2cccc(C(=O)OC(C)OC(=O)OC3CCCCC3)c2n1Cc1ccc(-c2ccccc2-c2nn[nH]n2)cc1 (stereo not drawn) 104

So what's the measured cell viability for this one? Nc1nc(Nc2ccc(S(N)(=O)=O)cc2)nn1C(=O)c1c(F)cccc1F 92.8

If you can, please state the reported cell viability value of OCC(Br)(Br)Br . 102

Reported cell viability for COc1ccccc1NC(=O)OCC1CCN(C(=O)OC(C)(C)C)CC1 : what is it? 100

Endpoint output: cell viability of COc1cc(C(=O)NS(=O)(=O)c2ccccc2C)ccc1Cc1cn(C)c2ccc(NC(=O)OC3CCCC3)cc12 . Value? 109

Recorded cell viability of O=c1ccc2cc3ccoc3cc2o1 , please. 110

Name the recorded cell viability for C[C@@H](NCCCc1cccc(C(F)(F)F)c1)c1cccc2ccccc12 . 87.9

Find the recorded cell viability belonging to CCN(CC)CCCCNc1ncc2cc(-c3c(Cl)cccc3Cl)c(NC(=O)NC(C)(C)C)nc2n1 and report it. 106

Returns the measured cell viability for the input compound. Input: Cc1cc(C)cc(NC(=O)Nc2ccc(OS(N)(=O)=O)cc2)c1 104

Give its cell viability value. Item: CCCN1CCN(c2ccc(C(=O)NC3(C(=O)NCC#N)CCCCC3)cc2)CC1 114

Query: cell viability; subject: O=C1NCC2(CCN(CCc3ccccc3)CC2)O1 [fenspiride] 100

Suppose we examine the compound CCS(=O)(=O)c1cccc(-c2cc(C(=O)NC3CCN(C)CC3)c(C)c3[nH]c4ncc(C)cc4c23)c1 ; what cell viability value has been reported? 76.5

// lookup cell viability for O=C1C(O)=C([C@H]2CC[C@H](c3ccc(Cl)cc3)CC2)C(=O)c2ccccc21 94.8

Which value of cell viability has been reported for CC(C)=CCC[C@](C)(O)[C@@H]1CC=C(C)CC1 in the records? 116

Entry under review: COc1ccc([C@@H]2CC(=O)c3c(O)cc(O[C@@H]4O[C@H](CO[C@@H]5O[C@@H](C)[C@H](O)[C@@H](O)[C@H]5O)[C@@H](O)[C@H](O)[C@H]4O)cc3O2)cc1O . Reported cell viability? 99.1

What measured cell viability goes with C=C1/C(=C\C=C2/CCC[C@]3(C)[C@@H]([C@H](C)CCCC(C)C)CC[C@@H]23)C[C@@H](O)C[C@@H]1O ? 98.4
